Give mean signal for every item shown.
Experiment: modulation of C. elegans fzo-1 (AID 1259413);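 note: fzo-1 mutant C. elegans worms in liquid wells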
Conditions: C. elegans fzo-1 modulator screen, mean read-out; stronger effect = higher value
Keep the answer to the number alone.

input: What value of mean signal has been reported for the following compound? CCN(CC)CCOC(=O)c1ccc(N)cc1
output: 231

input: Now consider Nc1nc2ccc(OC(F)(F)F)cc2s1 and answer again.
output: 260

input: Quick one: Clc1cccc(Cl)c1NC1=NCCN1
output: 231

input: Quick one: O=c1[nH]cc(F)c(=O)[nH]1
output: 262

input: Follow-up item: COc1cc2nc(N3CCN(C(=O)c4ccco4)CC3)nc(N)c2cc1OC
output: 236

input: Do the same for CC[C@H](C)C(=O)O[C@H]1C[C@@H](C)C=C2C=C[C@H](C)[C@H](CC[C@@H]3C[C@@H](O)CC(=O)O3)[C@H]21 please
output: 253

input: Same again, this time with C[C@]12CCC(=O)C=C1CC[C@@H]1[C@@H]2[C@@H](O)C[C@@]2(C)[C@H]1CC[C@]2(O)C(=O)CO
output: 278

input: Entry CC(N=C(NC#N)Nc1ccncc1)C(C)(C)C (stereo not given) please
output: 282

input: Now give it for CC(=O)OCC(CCn1cnc2cnc(N)nc21)COC(C)=O too.
output: 292

input: Similarly, OCCN1CCN(CCCN2c3ccccc3Sc3ccc(Cl)cc32)CC1 ?
output: 256

input: Same question, OCCN1C[C@H](O)[C@@H](O)[C@H](O)[C@H]1CO this time
output: 232

input: Then this compound: N[C@@H]1CONC1=O
output: 211

input: Next compound up: Cc1cccc(CN2CCN(C(c3ccccc3)c3ccc(Cl)cc3)CC2)c1 (stereo not given)
output: 222

input: Subsequent entry: COc1ccc2c(c1)c(CC(=O)O)c(C)n2C(=O)c1ccc(Cl)cc1
output: 244

input: Also NCC(=O)CCC(=O)O ?
output: 245

###

Test: HCT116 colon cancer cell growth inhibition, primary screen, CellTiter-Glo luminescence, NPC library (AID 1117342)
Details: at 20 µM (top of the series)
Consider the following molecules; for each one, report its inhibition of viability.
Kindly answer with a numeric value in %, unit omitted.

input: Item Clc1cccc(Cl)c1NC1=NCCN1 has what recorded inhibition of viability?
output: -0.6

input: Likewise for CCc1cc(C(N)=S)ccn1 ?
output: -7.9

input: Can you check CN1CC(O)c2cc(N=NC(N)=O)c(O)cc21 (stereo not given) next?
output: -4.6

input: Ok, now CC(C[N+](C)(C)C)OC(N)=O (stereo not given)
output: -0.4

input: Ok, now N=C(N)c1ccc(OCCCCCOc2ccc(C(=N)N)cc2)cc1
output: 12.5

input: Same thing, different molecule: Cc1c(F)cc2c(=O)c(C(=O)O)cn3c2c1CCC3C (stereo not given)
output: 0.65

input: Request: Cc1ccc(C(=O)C(=O)O)cc1C
output: -6.7

input: Another: CO/N=C(/C(=O)N[C@@H]1C(=O)N2C(C(=O)O)=C(Cn3nnc(C)n3)CS[C@H]12)c1csc(N)n1
output: -1.5

input: Here is the next molecule: N#CCC(=O)NN
output: 1.9

input: Try CC(C)C1CCC(C(=O)N[C@H](Cc2ccccc2)C(=O)O)CC1 (stereo not given in full) next.
output: -6.47

input: Also OCC(O)CS (stereo not given) ?
output: 6.77

input: Ok, now CCCCOCCOC(=O)c1cccnc1
output: -11.9

input: Same for O=C1NC(=O)C(c2ccccc2)(c2ccccc2)N1
output: 0.15

input: How about this molecule: CCCCOC(=O)CC(CC(=O)OCCCC)(OC(C)=O)C(=O)OCCCC
output: 25.9

input: Let us now turn to CC(=O)Nc1ccc(S(=O)(=O)Nc2cc(C)on2)cc1
output: 0.8

###

Task for the reader: assign each of the following molecules its reported tube area decrease.
Assay: inhibition of endothelial tube formation, primary screen, imaging, VEGF stimulated, CD31 staining, tube area, NPC library (AID 1117340)
Conditions: VEGF-stimulated ADSC/ECFC co-culture, at 10 µM, stronger effect = higher value
Response body: numeric value in %, unit text excluded.

input: Quick one: tube area decrease of Cc1ccc(/C=N/n2c(-c3ccccc3)csc2=S)cc1 ?
output: 18.4

input: And what about the molecule CCOC(=O)N1CCC(n2c(=O)[nH]c3cc(Cl)ccc32)CC1 ?
output: 14.4

input: // next record CCCCC/C=C\C/C=C\CCCCCCCC(=O)NC(C)c1ccccc1 (centres undefined)
output: -5.3

input: And OCC=Cc1ccccc1 ?
output: 0.4

input: Now try O=C(NCN1CCOCC1)c1cnccn1 .
output: 7.8

input: Can you handle CC(C)(C)CC(C)(C)c1ccc(O)c(-n2nc3ccccc3n2)c1 next?
output: 23.9

input: Likewise for CCNC(=O)NCc1cccc(Cl)c1 ?
output: 13.7

input: And the next one, CCOC(=O)c1ccc(NC(=O)CN2CCCCC2)cc1 ?
output: 0.1

input: What do we get for CN=C(N)NC(=O)Nc1c(C)cccc1C ?
output: -1.8

input: Lookup O=C(O)c1cccnc1
output: -17.1

input: Moving on to the next molecule: COc1cc(S(N)(=O)=O)cc(C(=O)O)c1OC
output: -3.6

input: For CC(=O)OC[C@H]1O[C@@](COC(C)=O)(O[C@H]2O[C@H](COC(C)=O)[C@@H](OC(C)=O)[C@H](OC(C)=O)[C@H]2OC(C)=O)[C@@H](OC(C)=O)[C@@H]1OC(C)=O then?
output: 0.8

input: Moving on to the next molecule: C[C@H](CN1CCCC1)C(=O)c1ccc(C(F)(F)F)cc1
output: -4

input: Also, CCCCNc1ccc(C(=O)OCCN(CC)CC)cc1 please.
output: 19.5

input: Try this molecule too: C[N+]1(CC2COC(c3ccccc3)(C3CCCCC3)O2)CCCCC1 (centres undefined)
output: 10.1

input: Same question for CCCCCCCCCC(=O)O please.
output: -24.1

input: Field entry: CCC(=O)O
output: -25.7

input: // next record CCOc1ccc(NS(=O)(=O)c2ccc(N)cc2)nn1
output: -25.2

input: Likewise for Cc1ncc(CO)c(CN)c1O ?
output: -13.4

input: Then this molecule: CCc1cc(C(N)=S)ccn1
output: 2.7

input: Now the molecule Cc1cc(C)c(NC(=O)CN(CC(=O)O)CC(=O)O)c(C)c1Br
output: -4.1

input: How about this molecule: Nc1ccc2c(c1)CN1C(=O)c3ccccc3C1=N2
output: 44.6

input: And what about the molecule CCOC(=O)[C@@H](N)CS ?
output: 2.3

input: What do you have for Cc1ccc(S(=O)(=O)NC(=O)NC2CCCCC2)cc1 ?
output: -13.1

input: Consider next the molecule CN1C(CSCC(F)(F)F)Nc2cc(Cl)c(S(N)(=O)=O)cc2S1(=O)=O (centres undefined) in the same way.
output: -10.7

input: Now give it for COc1cc2c(cc1OC)C(=O)CC2 too.
output: 3.8

input: CC(N=C(NC#N)Nc1ccncc1)C(C)(C)C (centres undefined) , same question.
output: -9.6

input: Next record, please: Cc1cc2nc3c(=O)[nH]c(=O)nc-3n(C[C@H](O)[C@H](O)[C@H](O)COP(=O)(O)OP(=O)(O)OC[C@H]3O[C@@H](n4cnc5c(N)ncnc54)[C@H](O)[C@H]3O)c2cc1C
output: -2.4

input: Param item: CCc1cc(S(=O)(=O)O)c2cc(C(C)C)cccc1-2
output: -12.6

###

Experiment: survival rescue of mitochondrial mutant cells in low glucose, primary screen, MELAS cybrids, Rieske KO mouse fibroblasts, CellTiter-Glo (AID 1508586);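 note: z relative to plate mean and SD of compound and empty wells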
Details: Rieske KO mouse fibroblast survival, CellTiter-Glo 72 h
Binary call on z-score: 1 (yes) from -0.06 upward, 0 (no) beneath that.

input: Textbook exercise: given the entry NC(=O)c1ccc(Oc2nccc(-c3c(-c4ccc(F)cc4)ncn3C3CCNCC3)n2)cc1 , state whether its z-score is greater than or equal to -0.06.
output: 0 (no)

input: Input CC(=O)OCC(=O)[C@@]12OC(C)(C)O[C@@H]1C[C@H]1[C@@H]3C[C@H](F)C4=CC(=O)C=C[C@]4(C)[C@@]3(F)[C@@H](O)C[C@@]12C
output: 1 (yes)

input: Follow-up entry: COc1cc2ncnc(Nc3ccc(C)c(O)c3)c2cc1OC
output: 0 (no)

input: What do you have for COc1ccc2ncn(-c3cc(O[C@H](C)c4ccccc4Cl)c(C(N)=O)s3)c2c1 ?
output: 1 (yes)

input: # repeat for NS(=O)(=O)c1ccc(Nc2ncc(-c3ccccc3)o2)cc1
output: 1 (yes)

input: Query Cc1ccc(NC(=O)c2ccoc2)cc1-c1ccc(C(=O)NCC2CC2)cc1 next
output: 0 (no)

input: Same thing, different molecule: OCCN1CCN(CCCN2c3ccccc3Sc3ccc(Cl)cc32)CC1
output: 1 (yes)

input: NS(=O)(=O)c1ccc(NC2CC(c3ccc(O)c(F)c3)NN2)cc1 (stereo not given) , same question.
output: 0 (no)

input: Consider next the molecule NC(=O)c1ccc2c(-c3ccnc(NCCCO)n3)c(-c3ccc(F)cc3)nn2c1 in the same way.
output: 0 (no)

input: Same thing, different molecule: CC1=C(C(=O)Nc2ccc3[nH]ncc3c2)C(c2ccc3ccccc3c2)CC(=O)N1 (stereo not given)
output: 0 (no)

input: Same again, this time with COc1cccc(/C=N/Nc2ncnc3c2cnn3-c2cccc(OC)c2)c1
output: 0 (no)

input: And for COc1ccc(-c2nn3ncccc3c2-c2ccnc(Nc3ccc(Cl)c(C(F)(F)F)c3)n2)cc1 ?
output: 0 (no)

input: C[C@@H]1C[C@H]2[C@@H]3CCC4=CC(=O)C=C[C@]4(C)[C@@]3(F)[C@@H](O)C[C@]2(C)[C@@]1(O)C(=O)CO , same question.
output: 1 (yes)

input: Same lookup for CS(=O)(=O)Nc1ccc(-c2ccc3c(NC(=O)C4CC4)n[nH]c3c2)cc1 , please.
output: 0 (no)

input: One more molecule: COc1cccc(-n2ncc3c(N/N=C/c4cccc(F)c4)ncnc32)c1
output: 0 (no)
